Data provenance is paper PMC9775191.

Each entry below carries its reported % Inhibition n=1 48h.
Test system: G. duodenalis BRIS/91/HEPU/1279
assay: Primary Giardia screen at 10 µM (live-cell imaging, automated counting)
Assay type: cell-based, Giardia duodenalis
details: 48 h, first singlicate assay
Field: numeric (%). Do not append units.

Solved entries (count: 3):
- molecule: "COC(=O)c1ccc(F)c(S(=O)(=O)NC2(c3nc(C)cs3)CCC2)c1 [SN00772601]"
  result-units: "%"
  % Inhibition n=1 48h: 27.1
- molecule: "CCOC(=O)c1ccsc1NC(=O)CN1CCNC(=O)CC1c1ccccc1 (stereo not shown) [SN00772435]"
  result-units: "%"
  % Inhibition n=1 48h: 0.0
- molecule: "Cc1cccc(OCC(=O)N2CCN(Cc3nnsc3Cl)CC2)c1C [SN00777844]"
  result-units: "%"
  % Inhibition n=1 48h: 35.2

query: Give measured % Inhibition n=1 48h for CCOc1cc(C2OCCn3c(-c4ccccc4)c4c(=O)n(C)c(=O)n(C)c4c32)ccc1O (stereo not shown) [SN00786012] (G. duodenalis BRIS/91/HEPU/1279).
result: 8.5

query: Give measured % Inhibition n=1 48h for O=C(Nc1ccnn1Cc1ccccn1)c1cccnc1Oc1ccccc1 [SN00775947] (G. duodenalis BRIS/91/HEPU/1279).
result: 2.6

query: Give measured % Inhibition n=1 48h for CCn1nc(C(=O)NCc2ccccc2F)cc1-c1cc(C)sc1C [SN00802641] (G. duodenalis BRIS/91/HEPU/1279).
result: 9.7

query: Give measured % Inhibition n=1 48h for N/C(=N/OCc1ncc(-c2cccs2)o1)c1ccc(Oc2ccc(F)cc2)nc1 [SN00781212] (G. duodenalis BRIS/91/HEPU/1279).
result: 41.6

###

Each entry below carries its reported % Inhibition n=1 48h.
Test system: G. duodenalis BRIS/91/HEPU/1279
assay: Primary Giardia screen at 10 µM (live-cell imaging, automated counting)
Assay type: cell-based, Giardia duodenalis
details: 48 h, first singlicate assay
Field: numeric (%). Do not append units.

- compound: "Cc1nc(CN2CCN(C(=O)c3c(C)c(C)n[nH]c3=O)CC2)cs1"
  % Inhibition n=1 48h, %: 0.0

query: Supply recorded % Inhibition n=1 48h for `CC(C)c1ccc(S(=O)(=O)N2CCN(c3cc(=O)n4nc(-c5ccccc5)sc4n3)CC2)cc1` here.
result: 0.0

query: Supply recorded % Inhibition n=1 48h for CCC(=O)Nc1cccc(-c2noc(C3CCCN(C(=O)c4ccc(C)c(F)c4)C3)n2)c1 (stereo not drawn) here.
result: 14.6

query: Supply recorded % Inhibition n=1 48h for O=C(C1CCCN1C(=O)C1CCCCC1)N1CCCC(c2nc(-c3ccc(Cl)cc3)no2)C1 (stereo not drawn) here.
result: 0.0

query: Supply recorded % Inhibition n=1 48h for `CCC(=O)N1N=C2C3CCN(CC3)[C@@H]2[C@@H]1c1cccc(OC)c1OC` here.
result: 13.8

query: Supply recorded % Inhibition n=1 48h for `O=C(Nc1cccnc1)C1=NN(Cc2ccccc2)C(=O)CC1` here.
result: 15.0

query: Supply recorded % Inhibition n=1 48h for O=C(NCc1ccco1)c1cnn2c1N[C@@H](c1ccc(Br)cc1)C[C@H]2C(F)(F)F (relative stereo) here.
result: 35.3

query: Supply recorded % Inhibition n=1 48h for `CC1(C)Cc2nc3[nH]c(=O)n(Cc4ccco4)c(=O)c3cc2CO1` here.
result: 7.3

query: Supply recorded % Inhibition n=1 48h for `CCN(c1ccc(-c2csc(Cc3nnc4n3CCCCC4)n2)cc1)S(C)(=O)=O` here.
result: 17.3
